target: Xanthine dehydrogenase/oxidase (Bos taurus, UniProt P80457); experiment: Ratio of kcat to km for bovine xanthine oxidase at 10 uM; details: cattle
Sequence (P80457 whole entry): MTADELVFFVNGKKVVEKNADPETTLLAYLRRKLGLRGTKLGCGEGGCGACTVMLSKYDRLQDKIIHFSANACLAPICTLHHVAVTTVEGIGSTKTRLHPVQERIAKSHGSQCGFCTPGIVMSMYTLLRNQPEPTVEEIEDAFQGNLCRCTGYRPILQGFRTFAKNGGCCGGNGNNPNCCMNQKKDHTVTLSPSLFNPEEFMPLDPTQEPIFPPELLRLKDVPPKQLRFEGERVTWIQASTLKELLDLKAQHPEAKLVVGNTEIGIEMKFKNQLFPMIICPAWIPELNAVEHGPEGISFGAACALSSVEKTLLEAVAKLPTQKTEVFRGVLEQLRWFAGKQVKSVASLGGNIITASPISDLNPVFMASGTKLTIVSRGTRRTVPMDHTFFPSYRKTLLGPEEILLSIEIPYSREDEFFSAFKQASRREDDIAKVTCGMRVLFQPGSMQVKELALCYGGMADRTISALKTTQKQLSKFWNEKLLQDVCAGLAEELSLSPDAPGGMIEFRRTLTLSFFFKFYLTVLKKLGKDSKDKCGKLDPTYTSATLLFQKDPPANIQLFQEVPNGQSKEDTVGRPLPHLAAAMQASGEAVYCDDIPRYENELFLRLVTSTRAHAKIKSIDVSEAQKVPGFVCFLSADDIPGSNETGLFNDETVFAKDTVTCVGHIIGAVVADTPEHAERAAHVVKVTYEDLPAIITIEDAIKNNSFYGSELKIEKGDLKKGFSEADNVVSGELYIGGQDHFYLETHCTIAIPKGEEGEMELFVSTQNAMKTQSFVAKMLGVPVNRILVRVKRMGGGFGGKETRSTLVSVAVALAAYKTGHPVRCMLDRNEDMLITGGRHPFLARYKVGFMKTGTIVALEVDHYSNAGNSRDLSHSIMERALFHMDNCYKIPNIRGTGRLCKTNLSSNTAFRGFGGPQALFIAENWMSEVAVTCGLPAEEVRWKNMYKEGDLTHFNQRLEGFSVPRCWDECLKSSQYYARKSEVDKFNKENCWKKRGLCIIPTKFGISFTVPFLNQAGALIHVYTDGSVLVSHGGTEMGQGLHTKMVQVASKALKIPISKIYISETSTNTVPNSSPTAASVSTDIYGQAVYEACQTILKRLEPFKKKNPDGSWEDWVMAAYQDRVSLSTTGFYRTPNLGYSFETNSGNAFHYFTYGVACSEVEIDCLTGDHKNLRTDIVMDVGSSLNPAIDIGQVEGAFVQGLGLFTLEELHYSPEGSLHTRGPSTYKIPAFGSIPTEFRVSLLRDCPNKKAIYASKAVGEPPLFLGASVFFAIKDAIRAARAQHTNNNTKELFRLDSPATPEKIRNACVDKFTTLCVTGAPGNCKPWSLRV

compound	Kcat/Km
O=c1c(O)c(-c2ccc(O)c(O)c2)oc2cc(O)cc(O)c12	1.6 µM⁻¹ s⁻¹
COc1cc(C2Oc3cc([C@H]4Oc5cc(O)cc(O)c5C(=O)[C@@H]4O)ccc3OC2CO)ccc1O (stereo not given in full)	0.14 µM⁻¹ s⁻¹
Oc1ncnc2[nH]ncc12	0.32 µM⁻¹ s⁻¹
O=c1cc(-c2ccc(O)c(O)c2)oc2cc(O)cc(O)c12	0.2 µM⁻¹ s⁻¹
COc1cc(/C=C/C(=O)CC(=O)/C=C/c2ccc(O)c(OC)c2)ccc1O	4.8 µM⁻¹ s⁻¹
